test system: Escherichia coli; test: Minimum concentration needed to produce linear DNA at an intensity relative to oxolinic at 10 ug/mL in Escherichia coli H560 in vitro.; assay type: functional
PROPERTY_LABEL: DNA cleavage conc (gyrase) (µg/mL)
Give a bare numeral; the unit µg/mL is implied.

CN(C)CC1CCN(c2cc3c(cc2F)c(=O)c(C(=O)O)cn3C2CC2)C1 (stereo not drawn)
0.75
Nc1c(N2CCNCC2)c(F)cc2c(=O)c(C(=O)O)cn(C3CC3)c12
2.5
CC1COc2c(N3CCC(CN)C3)c(F)cc3c(=O)c(C(=O)O)cn1c23 (stereo not drawn)
0.5

State the recorded DNA cleavage conc (gyrase) for this entry: Cl.NC1CCN(c2c(F)cc3c(=O)c(C(=O)O)cn(C4CC4)c3c2F)C1 (stereo not drawn)
0.1

Note, next up: CC1COc2c(N3CCC(N)C3)c(F)cc3c(=O)c(C(=O)O)cn1c23.Cl (stereo not drawn)
0.75

Note, next up: CCNCC1CCN(c2c(F)cc3c(=O)c(C(=O)O)cn4c3c2OCC4C)C1 (stereo not drawn)
0.5

Note, next up: CC(C)NCC1CCN(c2c(F)cc3c(=O)c(C(=O)O)cn(C4CC4)c3c2F)C1 (stereo not drawn)
2.8

Note, next up: CNCC1CCN(c2c(F)cc3c(=O)c(C(=O)O)cn(C4CC4)c3c2N)C1.Cl (stereo not drawn)
5

Note, next up: CN(C)CC1CCN(c2c(F)cc3c(=O)c(C(=O)O)cn(C4CC4)c3c2Cl)C1 (stereo not drawn)
1

Note, next up: Cl.Cl.NC1CCN(c2cc3c(cc2F)c(=O)c(C(=O)O)cn3C2CC2)C1 (stereo not drawn)
0.1

Note, next up: NCC1CCN(c2nc3c(cc2F)c(=O)c(C(=O)O)cn3C2CC2)C1 (stereo not drawn)
0.5

Note, next up: O=C(O)c1cn(C2CC2)c2c(Cl)c(N3CCNCC3)c(F)cc2c1=O
0.5

Note, next up: CN(C)CC1CCN(c2c(F)cc3c(=O)c(C(=O)O)cn(C4CC4)c3c2N)C1.Cl (stereo not drawn)
5

====

tested on: Enterococcus faecalis; experiment: Minimum inhibitory concentration against Streptococcus faecalis MGH-2 in vitro.; format: functional
Lab note: compare MIC with 0.1 mg/L, writing fulfilled if less and not fulfilled if equal or more.

Here are 6 molecules together with their reported answers.
NCC1CCN(c2cc3c(cc2F)c(=O)c(C(=O)O)cn3C2CC2)C1 (stereo not given)
fulfilled
O=C(O)c1cn(C2CC2)c2c(F)c(N3CCNCC3)c(F)cc2c1=O
not fulfilled
CCNCC1CCN(c2c(F)cc3c(=O)c(C(=O)O)cn(C4CC4)c3c2N)C1.Cl.Cl (stereo not given)
not fulfilled
CC1COc2c(N3CCC(N)C3)c(F)cc3c(=O)c(C(=O)O)cn1c23.Cl (stereo not given)
not fulfilled
CN(C)CC1CCN(c2c(F)cc3c(=O)c(C(=O)O)cn(C4CC4)c3c2F)C1 (stereo not given)
fulfilled
CNCC1CCN(c2nc3c(cc2F)c(=O)c(C(=O)O)cn3C2CC2)C1 (stereo not given)
not fulfilled

With those in mind, consider the next molecule.
Determine whether this molecule shows MIC lower than 0.1 mg/L (ties excluded): CN(C)CC1CCN(c2nc3c(cc2F)c(=O)c(C(=O)O)cn3C2CC2)C1 (stereo not given)
not fulfilled
